Data provenance: patent US20260008805A1

- target.under.test: human adenosine A3 receptor (Homo sapiens, UniProt P0DMS8)
- Construct: expressed in transfected cells; host or cells: CHO-K1 cells, stably transfected
- Sequence (P0DMS8 1-318): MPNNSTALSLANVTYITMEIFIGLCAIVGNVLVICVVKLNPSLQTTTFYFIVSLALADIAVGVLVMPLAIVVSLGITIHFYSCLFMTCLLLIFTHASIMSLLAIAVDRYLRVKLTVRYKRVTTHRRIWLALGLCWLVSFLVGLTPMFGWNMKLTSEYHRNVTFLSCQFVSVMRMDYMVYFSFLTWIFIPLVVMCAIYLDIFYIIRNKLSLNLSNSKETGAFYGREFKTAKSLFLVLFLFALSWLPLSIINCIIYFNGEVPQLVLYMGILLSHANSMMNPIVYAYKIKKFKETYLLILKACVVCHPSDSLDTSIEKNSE
- measurement.protocol: Intracellular cAMP levels (inhibition of forskolin-stimulated cAMP production)
- Format: cell-based
- experimental.context: Table 2; CHO-K1 cells expressing human adenosine A3 receptor, forskolin 10 μM; # = average between two data points
- Method: The method followed is that published in Yates L, Clark J H, Martin T J, James S, Broadley K J, Kidd E J. Radioligand binding and functional responses of ligands for human recombinant adenosine A3 receptors. […] CAMP Measurements: Intracellular cAMP production is measured directly using a non-acetylation cAMP enzyme immunoassay (Amersham Biosciences, Little Chalfont, UK). […] Analyses: Each sample/standard was analyzed in duplicate and the resulting OD values averaged. […]
pEC50: −log10 of the molar value.
endpoint.name: pEC50

Report pEC50 for Cc1cc2c(Cl)nc3c(ncn3[C@@H]3O[C@H](CO)[C@@H](O)[C@H]3O)c2[nH]1 please.
9.42

Report pEC50 for CC1Cc2c(Cl)nc3c(ncn3[C@H]3[C@H](O)[C@H](O)C4C[C@@H]43)c2N1 (some centres unmarked) [12A*] please.
7.94

Report pEC50 for Cc1cc2c(Cl)nc3c(ncn3[C@H]3[C@H](O)[C@H](O)[C@]4(C(N)=O)C[C@H]34)c2[nH]1 [25A*] please.
8.38

Report pEC50 for CC1CCc2c(Cl)nc3c(ncn3[C@H]3[C@H](O)[C@H](O)C4C[C@@H]43)c2N1 (some centres unmarked) [16A*] please.
8.27

Report pEC50 for Cc1cc2c(Cl)nc3c(ncn3[C@H]3[C@H](O)[C@H](O)C4C[C@@H]43)c2[nH]1 (some centres unmarked) [15A*] please.
9.70

[I] CNC(=O)[C@@]12C[C@@H]1[C@@H](n1cnc3c4c(c(Cl)nc31)CCC(C)N4)[C@H](O)[C@@H]2O (some centres unmarked) [10A*]
[II] Cc1cc2cnc3c(ncn3[C@H]3[C@H](O)[C@H](O)C4C[C@@H]43)c2[nH]1 (some centres unmarked) [14A*]
// max by pEC50 over [ I , II ] Give the label of your selection.
I
(I: 9.32, II: 8.69)

----------
- target.under.test: human adenosine A3 receptor (Homo sapiens, UniProt P0DMS8)
- Construct: expressed in transfected cells; host or cells: CHO-K1 cells, stably transfected
- Sequence (P0DMS8 1-318): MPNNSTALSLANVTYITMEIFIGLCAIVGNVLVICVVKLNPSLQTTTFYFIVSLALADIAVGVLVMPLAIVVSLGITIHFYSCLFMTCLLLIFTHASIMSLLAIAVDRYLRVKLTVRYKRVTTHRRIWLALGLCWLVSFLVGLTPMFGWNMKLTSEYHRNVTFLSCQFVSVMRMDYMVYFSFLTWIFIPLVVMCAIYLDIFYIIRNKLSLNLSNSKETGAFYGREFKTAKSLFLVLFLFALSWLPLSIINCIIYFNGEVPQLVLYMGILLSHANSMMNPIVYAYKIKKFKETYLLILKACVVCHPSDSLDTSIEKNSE
- measurement.protocol: Intracellular cAMP levels (inhibition of forskolin-stimulated cAMP production)
- Assay type: cell-based
- experimental.context: Table 1; maximal response as percentage of the response produced by 100 nM IB-MECA
endpoint.name: cAMP Efficacy (%)

Here is how some compounds turned out for cAMP Efficacy (%).
Report cAMP Efficacy (%) for O[C@H]1[C@H](n2cnc3c(NCc4cc(Cl)ccc4Cl)cc(Cl)nc32)[C@H]2C[C@@]2(c2ncc[nH]2)[C@H]1O please.
103.89

Report cAMP Efficacy (%) for N#Cc1cc(NCc2cc(Cl)ccc2Cl)c2ncn([C@H]3[C@H](O)[C@H](O)[C@]4(c5ncc[nH]5)C[C@H]34)c2n1 please.
104.81

Report cAMP Efficacy (%) for O[C@H]1[C@H](n2cnc3c(NCC(F)F)cc(Cl)nc32)[C@H]2C[C@@]2(c2ncn[nH]2)[C@H]1O [Compound 14B] please.
89.97

Report cAMP Efficacy (%) for Cn1nnc([C@@]23C[C@@H]2[C@@H](n2cnc4c5[nH]c(CO)cc5c(Cl)nc42)[C@H](O)[C@@H]3O)n1 please.
34.29

Report cAMP Efficacy (%) for Cc1cc2c(Cl)nc3c(ncn3[C@H]3[C@H](O)[C@H](O)[C@]4(c5ncc[nH]5)C[C@H]34)c2[nH]1 please.
105.39

[I] Cn1nnc([C@@]23C[C@@H]2[C@@H](n2cnc4c5[nH]c(C=O)cc5c(Cl)nc42)[C@H](O)[C@@H]3O)n1
[II] Cc1nc2c(Cl)nc3c(ncn3[C@H]3[C@H](O)[C@H](O)[C@]4(c5nnn(C)n5)C[C@H]34)c2[nH]1
Min cAMP Efficacy (%)? I | II Give the label of your selection.
I
(I: 10%, II: 31.72%)

[I] CCNc1cc(Cl)nc2c1ncn2[C@H]1[C@H](O)[C@H](O)[C@]2(c3ncc[nH]3)C[C@H]12 [Compound 12B]
[II] CCNc1cc(Cl)nc2c1ncn2[C@H]1[C@H](O)[C@H](O)[C@]2(c3ncco3)C[C@H]12 [Compound 10B]
[III] CCNc1cc(Cl)nc2c1ncn2[C@H]1[C@H](O)[C@H](O)[C@]2(c3nnn(C)n3)C[C@H]12 [Compound 13B]
[IV] Cn1nnc([C@@]23C[C@@H]2[C@@H](n2cnc4c5[nH]c(C(F)F)cc5c(Cl)nc42)[C@H](O)[C@@H]3O)n1
Output the entries ranked by cAMP Efficacy (%) from maximum down to minimum. Form entry: labels listed in requested order.
I, II, IV, III

----------
- target.under.test: human A3 receptors (Homo sapiens)
- Construct: expressed in transfected cells; host or cells: HEK-293 cells, stably transfected; membrane preparation
- measurement.protocol: Adenosine receptor binding assay ([3H]HEMADO competition)
- experimental.context: Table 2, membranes of HEK-293 cells expressing human A3 receptor, Cheng-Prusoff, read-out: hA3 Ki
pKi: −log10 of the molar value.
endpoint.name: pKi

Test system human A3 receptors (Homo sapiens); read-out pKi; what value for Cc1cc2c(Cl)nc3c(ncn3[C@H]3[C@H](O)[C@H](O)[C@]4(C#N)C[C@H]34)c2[nH]1 [26A*] ?
7.01

Test system human A3 receptors (Homo sapiens); read-out pKi; what value for CNC(=O)[C@@]12C[C@@H]1[C@@H](n1cnc3c4c(c(Cl)nc31)C(O)CC(C)N4)[C@H](O)[C@@H]2O (stereo partly shown) ?
8.23

Test system human A3 receptors (Homo sapiens); read-out pKi; what value for Cc1cc2c(C#CC3CC3)nc3c(ncn3[C@H]3[C@H](O)[C@H](O)C4C[C@@H]43)c2[nH]1 (stereo partly shown) ?
9.21

Test system human A3 receptors (Homo sapiens); read-out pKi; what value for CNC(=O)[C@@]12C[C@@H]1[C@@H](n1cnc3c4[nH]c(C)cc4c(Cl)nc31)[C@H](O)[C@@H]2O ?
9.27

Test system human A3 receptors (Homo sapiens); read-out pKi; what value for CC1CCc2c(Cl)nc3c(ncn3[C@H]3[C@H](O)[C@H](O)C4C[C@@H]43)c2N1 (stereo partly shown) [16A*] ?
7.34

Test system human A3 receptors (Homo sapiens); read-out pKi; what value for Cc1cc2c(Cl)nc3c(ncn3[C@@H]3O[C@H](CO)[C@@H](O)[C@H]3O)c2[nH]1 ?
8.88

Test system human A3 receptors (Homo sapiens); read-out pKi; what value for Cc1cc2cnc3c(ncn3[C@H]3[C@H](O)[C@H](O)C4C[C@@H]43)c2[nH]1 (stereo partly shown) [14A*] ?
8.59

Test system human A3 receptors (Homo sapiens); read-out pKi; what value for Cc1cc2c(Cl)nc3c(ncn3[C@H]3[C@H](O)[C@H](O)C4C[C@@H]43)c2[nH]1 (stereo partly shown) [15A*] ?
8.64

[A] CNC(=O)[C@@]12C[C@@H]1[C@@H](n1cnc3c4c(c(Cl)nc31)C(=O)CC(C)N4)[C@H](O)[C@@H]2O (stereo partly shown) [11A*]
[B] Cc1cc2c(C#N)nc3c(ncn3[C@H]3[C@H](O)[C@H](O)C4C[C@@H]43)c2[nH]1 (stereo partly shown)
[C] CC1Cc2c(Cl)nc3c(ncn3[C@H]3[C@H](O)[C@H](O)[C@]4(CO)C[C@H]34)c2N1 (stereo partly shown)
[D] Cc1nc2c(Cl)nc3c(ncn3[C@H]3[C@H](O)[C@H](O)C4C[C@@H]43)c2[nH]1 (stereo partly shown) [22A*]
[E] CC1Cc2c(Cl)nc3c(ncn3[C@H]3[C@H](O)[C@H](O)C4C[C@@H]43)c2N1 (stereo partly shown) [12A*]
Output the entries ranked by pKi from maximum down to minimum. Form entry: labels listed in requested order.
B, D, A, E, C
